Taken from patent US10875874B2.

For each entry below, report its Average dairy food intake value.
assay: Weekly food intake of SHR rats; format: in vivo, rat; details: 60 mg/kg/d intragastric, week 7
Marks after values point to notes of the source that are not given here.

molecule	Average dairy food intake
Cc1nc(C)c(C(=O)O[C@H]2C(=O)O[C@H]3O[C@]45C(=O)OC6C[C@@H](C(C)(C)C)C32[C@@]64[C@@H](O)[C@@H]2OC(=O)[C@@H](C)[C@@]25O)nc1C (stereo partly drawn)	24.0^▴▴ g/d
C[C@@H]1C(=O)O[C@H]2[C@H](O)[C@@]34C5C[C@@H](C(C)(C)C)C36[C@@H](OC(=O)[C@@H]6OC(=O)[C@H](c3ccccc3Cl)N3CCc6sccc6C3)O[C@@]4(C(=O)O5)[C@@]12O (stereo partly drawn)	24.5^▴▴ g/d

// below: Average dairy food intake requested for another molecule
Form: molecule = CC(=O)Oc1ccccc1C(=O)O[C@H]1C(=O)O[C@H]2O[C@]34C(=O)OC5C[C@@H](C(C)(C)C)C21[C@@]53[C@@H](O)[C@@H]1OC(=O)[C@@H](C)[C@@]14O (stereo partly drawn) ; Average dairy food intake = 24.6^▴▴ g/d

* * *

For each entry below, report its Systolic pressure value.
System: spontaneously hypertensive rats (SHR)
Assay: Caudal artery systolic pressure of spontaneously hypertensive rats, single administration
Assay type: in vivo, rat
Details: 120 mg/kg intragastric single administration, 90 min, x ± s, n = 8
Method: 2.1 Grouping and administration of animals: 112 SHR rats (the female and male SHR rats are half and half, and the female rats are not pregnant) with the body weight of 200-250 g are taken, the rats are enabled to adapt to a laboratory for a period of 5 d, blood pressure is measured once at a day to enable the rats to adapt to the environment and detect stimulation. […]
Give bare numbers, in mmHg.

Field: example entries. Status: answers known.
compound	quantityMeasured	quantityUnit	testValue
CC1C(=O)OC2C(O)C34C5CC(C(C)(C)C)C36C(OC(=O)C6O)OC4(C(=O)O5)C12O (stereo not drawn) [GB, ginkgolide B]	Systolic pressure	mmHg	160.26
Cc1nc(C)c(CO[C@H]2C(=O)O[C@H]3O[C@]45C(=O)OC6C[C@@H](C(C)(C)C)C32[C@@]64[C@@H](O)[C@@H]2OC(=O)[C@@H](C)[C@@]25O)nc1C (stereo partly drawn)	Systolic pressure	mmHg	153.65
C[C@@H]1C(=O)O[C@H]2[C@H](O)[C@@]34C5C[C@@H](C(C)(C)C)C36[C@@H](OC(=O)[C@@H]6OC(=O)[C@H](c3ccccc3Cl)N3CCc6sccc6C3)O[C@@]4(C(=O)O5)[C@@]12O (stereo partly drawn)	Systolic pressure	mmHg	152.95
CCCCC(OC(C)=O)c1ccccc1C(=O)O[C@H]1C(=O)O[C@H]2O[C@]34C(=O)OC5C[C@@H](C(C)(C)C)C21[C@@]53[C@@H](O)[C@@H]1OC(=O)[C@@H](C)[C@@]14O (stereo partly drawn)	Systolic pressure	mmHg	157.25
CC(=O)Oc1ccccc1C(=O)O[C@H]1C(=O)O[C@H]2O[C@]34C(=O)OC5C[C@@H](C(C)(C)C)C21[C@@]53[C@@H](O)[C@@H]1OC(=O)[C@@H](C)[C@@]14O (stereo partly drawn)	Systolic pressure	mmHg	161.30

// below: Systolic pressure requested for another compound
Form: compound = Cc1nc(C)c(C(=O)O[C@H]2C(=O)O[C@H]3O[C@]45C(=O)OC6C[C@@H](C(C)(C)C)C32[C@@]64[C@@H](O)[C@@H]2OC(=O)[C@@H](C)[C@@]25O)nc1C (stereo partly drawn) ; Systolic pressure = 156.28

* * *

test system: spontaneously hypertensive rats (SHR); assay: Caudal artery systolic pressure of spontaneously hypertensive rats, single administration; type: in vivo, rat; conditions: 120 mg/kg intragastric single administration, before administration, x ± s, n = 8
For each entry below, report its Systolic pressure value.
Numbers only, in mmHg.

compound	Systolic pressure [mmHg]
C[C@@H]1C(=O)O[C@H]2[C@H](O)[C@@]34C5C[C@@H](C(C)(C)C)C36[C@@H](OC(=O)[C@@H]6OC(=O)[C@H](c3ccccc3Cl)N3CCc6sccc6C3)O[C@@]4(C(=O)O5)[C@@]12O (stereo partly drawn) [BL]	164.25
CC1C(=O)OC2C(O)C34C5CC(C(C)(C)C)C36C(OC(=O)C6O)OC4(C(=O)O5)C12O (stereo not drawn) [GB, ginkgolide B]	167.49

// below: Systolic pressure requested for another compound
Form: compound = Cc1nc(C)c(C(=O)O[C@H]2C(=O)O[C@H]3O[C@]45C(=O)OC6C[C@@H](C(C)(C)C)C32[C@@]64[C@@H](O)[C@@H]2OC(=O)[C@@H](C)[C@@]25O)nc1C (stereo partly drawn) [BZ] ; Systolic pressure = 166.24

* * *

For each entry below, report its Average dairy food intake value.
assay: Weekly food intake of SHR rats; format: in vivo, rat; conditions: 60 mg/kg/d intragastric, week 3
Marks after values point to notes of the source that are not given here.

Need Average dairy food intake for each of these compounds.
1. CC1C(=O)OC2C(O)C34C5CC(C(C)(C)C)C36C(OC(=O)C6O)OC4(C(=O)O5)C12O (stereo not drawn) [GB, ginkgolide B]
2. CCCCC(OC(C)=O)c1ccccc1C(=O)O[C@H]1C(=O)O[C@H]2O[C@]34C(=O)OC5C[C@@H](C(C)(C)C)C21[C@@]53[C@@H](O)[C@@H]1OC(=O)[C@@H](C)[C@@]14O (stereo partly drawn) [BD]
3. C[C@@H]1C(=O)O[C@H]2[C@H](O)[C@@]34C5C[C@@H](C(C)(C)C)C36[C@@H](OC(=O)[C@@H]6OC(=O)[C@H](c3ccccc3Cl)N3CCc6sccc6C3)O[C@@]4(C(=O)O5)[C@@]12O (stereo partly drawn) [BL]
4. Cc1nc(C)c(CO[C@H]2C(=O)O[C@H]3O[C@]45C(=O)OC6C[C@@H](C(C)(C)C)C32[C@@]64[C@@H](O)[C@@H]2OC(=O)[C@@H](C)[C@@]25O)nc1C (stereo partly drawn) [BM]
5. CC(=O)Oc1ccccc1C(=O)O[C@H]1C(=O)O[C@H]2O[C@]34C(=O)OC5C[C@@H](C(C)(C)C)C21[C@@]53[C@@H](O)[C@@H]1OC(=O)[C@@H](C)[C@@]14O (stereo partly drawn) [BA]
6. Cc1nc(C)c(C(=O)O[C@H]2C(=O)O[C@H]3O[C@]45C(=O)OC6C[C@@H](C(C)(C)C)C32[C@@]64[C@@H](O)[C@@H]2OC(=O)[C@@H](C)[C@@]25O)nc1C (stereo partly drawn) [BZ]

["17.7 g/day", "19.8^▴ g/d", "21.0^▴▴ g/d", "20.9^▴▴ g/d", "19.6^▴ g/d", "20.4^▴▴ g/d"]

* * *

system: spontaneously hypertensive rats (SHR); test: Caudal artery systolic pressure of spontaneously hypertensive rats, 8 weeks of continuous medication; assay type: in vivo, rat; conditions: 60 mg/kg/d intragastric continuous, 35 d, 30 min after administration, x ± s, n = 8
quantityMeasured: Systolic pressure (mmHg)
Give bare numbers, in mmHg.

Need Systolic pressure for each of these molecules.
1. CCCCC(OC(C)=O)c1ccccc1C(=O)O[C@H]1C(=O)O[C@H]2O[C@]34C(=O)OC5C[C@@H](C(C)(C)C)C21[C@@]53[C@@H](O)[C@@H]1OC(=O)[C@@H](C)[C@@]14O (stereo partly drawn) [BD]
2. C[C@@H]1C(=O)O[C@H]2[C@H](O)[C@@]34C5C[C@@H](C(C)(C)C)C36[C@@H](OC(=O)[C@@H]6OC(=O)[C@H](c3ccccc3Cl)N3CCc6sccc6C3)O[C@@]4(C(=O)O5)[C@@]12O (stereo partly drawn) [BL]
3. CC(=O)Oc1ccccc1C(=O)O[C@H]1C(=O)O[C@H]2O[C@]34C(=O)OC5C[C@@H](C(C)(C)C)C21[C@@]53[C@@H](O)[C@@H]1OC(=O)[C@@H](C)[C@@]14O (stereo partly drawn) [BA]

1. 157.03
2. 153.67
3. 153.72

Need Systolic pressure for each of these molecules.
1. Cc1nc(C)c(CO[C@H]2C(=O)O[C@H]3O[C@]45C(=O)OC6C[C@@H](C(C)(C)C)C32[C@@]64[C@@H](O)[C@@H]2OC(=O)[C@@H](C)[C@@]25O)nc1C (stereo partly drawn) [BM]
2. CC1C(=O)OC2C(O)C34C5CC(C(C)(C)C)C36C(OC(=O)C6O)OC4(C(=O)O5)C12O (stereo not drawn) [GB, ginkgolide B]
3. Cc1nc(C)c(C(=O)O[C@H]2C(=O)O[C@H]3O[C@]45C(=O)OC6C[C@@H](C(C)(C)C)C32[C@@]64[C@@H](O)[C@@H]2OC(=O)[C@@H](C)[C@@]25O)nc1C (stereo partly drawn) [BZ]

1: 151.48; 2: 154.25; 3: 150.95
